The reported measurements were obtained from patent US20080057086A1.

Assay: Caco 2 monolayer permeability of 5-azacytidine with and without excipients
Assay type: in vitro ADME
Conditions: human, Caco-2, pH 7.4; read-out: Papp (apical to basolateral permeability)
test_readout: Papp A→B at 1000 micromolar (×10⁻⁶ cm/s)
Answer with a number only, understood to be in ×10⁻⁶ cm/s.

For the compound shown here, Nc1ncn([C@@H]2O[C@H](CO)[C@@H](O)[C@H]2O)c(=O)n1 [5-azacytidine] , give the reported Papp A→B at 1000 micromolar.
0.15

---

Assay: Clinical study of single oral doses of 5-azacytidine (oral formulation of Example 3): PK, bioavailability, safety
Type: in vivo, human
Conditions: human, plasma, po, 60 mg, Subject 101; 60 mg single oral dose (Example 3 tablets); 0 h; read-out: Plasma concentration
test_readout: concentration at 0 h (µg/mL)
Answer with a number only, understood to be in µg/mL.

For the molecule shown here, Nc1ncn([C@@H]2O[C@H](CO)[C@@H](O)[C@H]2O)c(=O)n1 [5-azacytidine] , give the reported concentration at 0 h.
0

---

Assay: Clinical study of single oral doses of 5-azacytidine (oral formulation of Example 3): PK, bioavailability, safety
Format: in vivo, human
Details: human, plasma, po, 80 mg, Subject 201; 80 mg single oral dose (Example 3 tablets); 2.0 h; read-out: Plasma concentration
test_readout: concentration at 2 h
Kindly report the value followed by its unit.

For the molecule shown here, `Nc1ncn([C@@H]2O[C@H](CO)[C@@H](O)[C@H]2O)c(=O)n1` , give the reported concentration at 2 h.
0.0751 µg/mL

---

Assay: Clinical study of single oral doses of 5-azacytidine (oral formulation of Example 3): PK, bioavailability, safety
Assay type: in vivo, human
Conditions: human, plasma, po, 80 mg, Subject 201; 80 mg single oral dose (Example 3 tablets)
test_readout: Cmax (ng/mL)
Answer with a number only, understood to be in ng/mL.

For the compound shown here, `Nc1ncn([C@@H]2O[C@H](CO)[C@@H](O)[C@H]2O)c(=O)n1` , give the reported Cmax.
75.1
